assay_system: T1, c-Met-Fc chimera protein (UniProt P08581 25-932, limits assumed)
T1 construct: Captured on the SPR chip by an anti-IgG antibody; not shown: Fc part
T1 sequence (P08581 25-932 limits assumed, change not shown): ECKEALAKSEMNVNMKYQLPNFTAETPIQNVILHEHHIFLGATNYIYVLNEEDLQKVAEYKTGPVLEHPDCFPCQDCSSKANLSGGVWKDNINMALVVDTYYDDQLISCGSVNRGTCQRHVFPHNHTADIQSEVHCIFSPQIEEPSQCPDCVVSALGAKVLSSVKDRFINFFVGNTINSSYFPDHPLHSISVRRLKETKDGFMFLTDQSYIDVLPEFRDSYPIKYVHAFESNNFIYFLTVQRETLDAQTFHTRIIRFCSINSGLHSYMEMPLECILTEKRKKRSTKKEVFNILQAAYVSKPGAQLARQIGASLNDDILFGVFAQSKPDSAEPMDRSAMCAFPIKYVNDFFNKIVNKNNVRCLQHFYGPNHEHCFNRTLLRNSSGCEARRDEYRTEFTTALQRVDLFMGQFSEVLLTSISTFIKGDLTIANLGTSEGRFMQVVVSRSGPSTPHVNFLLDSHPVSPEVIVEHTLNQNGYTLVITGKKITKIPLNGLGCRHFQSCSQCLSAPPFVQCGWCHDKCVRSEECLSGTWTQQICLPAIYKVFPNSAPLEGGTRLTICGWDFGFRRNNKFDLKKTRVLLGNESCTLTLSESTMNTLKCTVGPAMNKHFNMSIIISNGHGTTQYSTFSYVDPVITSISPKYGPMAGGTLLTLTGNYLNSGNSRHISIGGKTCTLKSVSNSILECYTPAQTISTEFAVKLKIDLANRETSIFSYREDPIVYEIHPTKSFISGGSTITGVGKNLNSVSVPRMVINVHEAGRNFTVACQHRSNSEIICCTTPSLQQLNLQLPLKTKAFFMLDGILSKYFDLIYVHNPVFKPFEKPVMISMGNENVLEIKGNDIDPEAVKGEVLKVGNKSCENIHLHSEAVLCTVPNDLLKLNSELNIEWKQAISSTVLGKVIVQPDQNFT
assay_text: SPR (Biacore), c-Met-Fc captured by anti-IgG on CM5, single-cycle kinetics
Bridges are numbered along the chain shown (N, C = ends). Roman numbers before positions name the chains, in order. Primed or numbered codes have the meaning given here. Where no end group is shown, it is not given here. [ ]: non-standard residue; d: D form. NMeR = CN[C@@H](CCCNC(=N)N)C(=O)O; NMeC = CN[C@@H](CS)C(=O)O; BMH′ = not defined here
We begin with a simple list: items and their reported kon.

# binder, kon, M⁻¹ s⁻¹
rows = [
    ("D5-4 dimeric peptide, linker Bis-MAL-PEG3 (thioether I:N-I:15, II:N-II:15 via Ac; not fully specified (N-terminus, bridges); also: dimer: two copies joined by Bis-MAL-PEG3 through an added C-terminal Cys (handle not in letters), Two macrocyclic peptides joined through their C-terminal Cys by Bis-MAL-PEG3; also called D5-4 Bis-MAL-PEG3; not shown: C-terminal handle of each copy (spacer residue plus Cys)) peptide 1: [dY]WYYAWDQTYKAFPCG peptide 2: [dY]WYYAWDQTYKAFPCG", 120000),
    ("{CH2CO}-YRQFNRRTHEVWNLDCGC(Bis‑MAL‑PEG3) (thioether N-16; not fully specified (residue 1); also: dimer: two copies joined by Bis-MAL-PEG3 at Cys18, Two macrocyclic peptides joined through their C-terminal Cys by Bis-MAL-PEG3; also called D4-3 Bis-MAL-PEG3) [D4-3 dimeric peptide, linker Bis-MAL-PEG3]", "1.1e+06"),
    ("{CH2CO}-YRQFNRRTHEVWNLDCGC(BMH′) (thioether N-16; not fully specified (residue 1); also: dimer: two copies joined by BMH at Cys18, Two macrocyclic peptides joined through their C-terminal Cys by BMH; also called D4-3 BMH) [D4-3 dimeric peptide, linker BMH]", "2e+06"),
    ("{CH2CO}-YRQFNRRTHEVWNLDCGC(Bis‑MAL‑PEG11) (thioether N-16; not fully specified (residue 1); also: dimer: two copies joined by Bis-MAL-PEG11 at Cys18, Two macrocyclic peptides joined through their C-terminal Cys by Bis-MAL-PEG11; also called D4-3 Bis-MAL-PEG11) [D4-3 dimeric peptide, linker Bis-MAL-PEG11]", "1.2e+06"),
    ("D5-4 dimeric peptide, linker Bis-MAL-PEG11 (thioether I:N-I:15, II:N-II:15 via Ac; not fully specified (N-terminus, bridges); also: dimer: two copies joined by Bis-MAL-PEG11 through an added C-terminal Cys (handle not in letters), Two macrocyclic peptides joined through their C-terminal Cys by Bis-MAL-PEG11; also called D5-4 Bis-MAL-PEG11; not shown: C-terminal handle of each copy (spacer residue plus Cys)) peptide 1: [dY]WYYAWDQTYKAFPCG peptide 2: [dY]WYYAWDQTYKAFPCG", "5.3e+06"),
    ("{CH2CO}-[dY]WYYAWDQTYKAFPCG (thioether N-15, also called D5-4 peptide; D5-4 Monomer) [D5-4]", "4.5e+06"),
    ("{CH2CO}-YRQFNRRTHEVWNLDCG (thioether N-16; not fully specified, also called D4-3 peptide; D4-3 Monomer) [D4-3]", "2.4e+06"),
    ("{CH2CO}-YRQFN[NMeR]RTHEVWNLD[NMeC]G (thioether N-16, also called NMe (N6 + N16); N-methylated D4-3) [D4-3NMe]", 390000),
]
